The origin of these recorded values is paper PMC9352680.

Target: T1, PUF4 RNA-binding domain (Saccharomyces cerevisiae, UniProt P25339 537-888)
T1 sequence: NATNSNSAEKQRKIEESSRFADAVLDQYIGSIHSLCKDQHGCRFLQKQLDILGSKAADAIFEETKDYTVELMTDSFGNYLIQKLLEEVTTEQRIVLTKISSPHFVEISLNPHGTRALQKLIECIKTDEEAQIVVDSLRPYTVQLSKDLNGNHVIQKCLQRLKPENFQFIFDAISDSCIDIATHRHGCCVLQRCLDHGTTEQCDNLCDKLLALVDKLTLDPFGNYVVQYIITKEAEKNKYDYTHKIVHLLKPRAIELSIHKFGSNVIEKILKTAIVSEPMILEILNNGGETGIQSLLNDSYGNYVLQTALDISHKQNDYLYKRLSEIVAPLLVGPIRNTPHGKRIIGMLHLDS
Assay: Mg; RNA-MaP; 20 mM Na-HEPES pH 7.4, 30 mM KOAc, 0.75 mM MgCl2, 0.1% Tween-20, 5% glycerol, 0.1 mg/mL BSA, 2 mM DTT; 25 C; 0.0125-409.6 nM protein
Details: tags: N-His6-TEV cleaved; C-SNAP kept, Cy3B-labelled; label: tethered on chip by stalled RNA polymerase
pKd: −log10 of the molar value.
# label = label 1 if pKd >= 8 else label 0

Below, 8 binders whose answers are already recorded.
Ie_S4_P5E.1_K5.1_C5.1_H5.1_A5.1_[+6CCC]_F5.1_T5.1 (ssRNA) RNA: UUUGACAACUGAUCGUUCUUUCUUGUAUUCCCAUUAUUCUUUCUCGAUCAGUUGUCUUU :: label 0
UCUCUUUGUAGCCAUCUCUU (ssRNA) [Ic_S1_P3E.1_K3.1_C3.1_H3.1_A3.1_[T5G]_[A6C]_F3.1_[T7C]_T3.1] :: label 0
ACAAACCGACACUAUACAACAAAC (ssRNA) [Id_ii_S3_P3E.4_K3.3_C3.2_[T-1G]_H3.3_A3.1_F3.1_T3.2_[T9C]] :: label 0
Ic_S2_P5E.1_K5.1_C5.1_H5.1_A5.1_[T5C]_[A7C]_F5.1_[T8A]_[T9G]_[A10C]_T5.1 (ssRNA) RNA: UUUGAUUAAUAUGAUAUCGUUCUUUCUUGUACUCAGCUUCUUUCUCGAUAUCAUAUUAAUCUUU :: label 0
UCUCUUUGUAAUACUCUCUCUU (ssRNA) [Ic_S1_P5E.1_K5.1_C5.1_H5.1_A5.1_[T5A]_F5.1_[T8C]_[A10C]_T5.1] :: label 0
UCUCUUUGUACGUGCUUCUCUU (ssRNA) [Ic_S1_P5E.1_K5.1_C5.1_H5.1_A5.1_[T5C]_[T6G]_[A7T]_F5.1_[T8G]_[T9C]_[A10T]_T5.1] :: label 0
Ic_S2_P5E.1_K5.1_C5.1_H5.1_A5.1_[T5C]_F5.1_[T8C]_[T9G]_[A10C]_T5.1 (ssRNA) RNA: UUUGAUUAAUAUGAUAUCGUUCUUUCUUGUACUACGCUUCUUUCUCGAUAUCAUAUUAAUCUUU :: label 0
ACAAACCCACACUUAUUACCACAAAC (ssRNA) [Id_ii_S3_P5E.4_K5.3_C5.2_[T-1C]_H5.3_A5.1_F5.1_T5.2_[T11C]_[A12C]] :: label 0

Exercise: Hi team, for UCUCUUUCUAUCAUUAUCUCUU (ssRNA) [Ib_S1_P5E.1_K5.1_C5.1_H5.1_[G2C]_A5.1_[T6C]_F5.1_T5.1] , is the recorded pKd at or above 8?
Key: label 0

Exercise: One more binder: UCUCUUUGUAAGCUGCUCUCUU (ssRNA) [Ic_S1_P5E.1_K5.1_C5.1_H5.1_A5.1_[T5A]_[T6G]_[A7C]_F5.1_[T9G]_[A10C]_T5.1]
Key: label 0

Exercise: Another binder: UCUCUUUGUAAUUAAUCUCUU (ssRNA) [Ic_S1_P4E.1_K4.1_C4.1_H4.1_A4.1_[T5A]_[A6T]_F4.1_[T8A]_T4.1]
Key: label 0

Exercise: Please answer likewise for UCUCUUUCUGUAUAUAGCUCUCUU (ssRNA) [Id_ii_S1_P3E.2_K3.1_C3.2_[C-2T]_[T-1C]_H3.1_A3.1_F3.1_T3.2_[T9G]_[A10C]]
Key: label 1
